Target: human cloned 5-HT6 receptors (Homo sapiens, UniProt P50406)
Sequence (P50406 whole entry): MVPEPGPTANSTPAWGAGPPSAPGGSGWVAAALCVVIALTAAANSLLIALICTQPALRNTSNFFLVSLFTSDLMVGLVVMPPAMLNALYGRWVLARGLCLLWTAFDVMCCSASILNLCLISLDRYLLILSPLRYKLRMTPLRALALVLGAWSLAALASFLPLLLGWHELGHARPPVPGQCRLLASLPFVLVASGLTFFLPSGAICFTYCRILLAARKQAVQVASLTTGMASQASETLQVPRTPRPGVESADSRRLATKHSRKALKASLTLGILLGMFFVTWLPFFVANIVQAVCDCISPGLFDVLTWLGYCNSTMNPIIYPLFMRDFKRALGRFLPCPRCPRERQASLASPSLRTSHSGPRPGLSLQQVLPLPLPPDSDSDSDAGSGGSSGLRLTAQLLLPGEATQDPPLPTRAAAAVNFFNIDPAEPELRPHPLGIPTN
Kindly supply the reported Ki values for the records listed here.
Give bare numbers, in nM.

Record excerpt, results attached:
>>> observed("O=S(=O)(c1ccccc1)n1cc(C2CCCNC2)c2ccccc21 (stereo not shown)")
2
>>> observed("CN1CCC(c2cn(S(=O)(=O)c3ccccc3Br)c3ccccc23)C1 (stereo not shown)")
1
>>> observed("O=S(=O)(c1ccccc1Br)n1cc(C2CCN(Cc3ccccc3)C2)c2ccccc21 (stereo not shown)")
14

Could you now look at the following compound, please?
Enter reported Ki observed with human cloned 5-HT6 receptors (Homo sapiens, UniProt P50406) for CN1CCC(c2cn(S(=O)(=O)c3ccc(I)cc3)c3ccccc23)C1 (stereo not shown)
1
